Target: Integrin alpha-V/beta-3 (Homo sapiens, UniProt P05106+P06756)
Sequence (P05106 27-788 limits assumed): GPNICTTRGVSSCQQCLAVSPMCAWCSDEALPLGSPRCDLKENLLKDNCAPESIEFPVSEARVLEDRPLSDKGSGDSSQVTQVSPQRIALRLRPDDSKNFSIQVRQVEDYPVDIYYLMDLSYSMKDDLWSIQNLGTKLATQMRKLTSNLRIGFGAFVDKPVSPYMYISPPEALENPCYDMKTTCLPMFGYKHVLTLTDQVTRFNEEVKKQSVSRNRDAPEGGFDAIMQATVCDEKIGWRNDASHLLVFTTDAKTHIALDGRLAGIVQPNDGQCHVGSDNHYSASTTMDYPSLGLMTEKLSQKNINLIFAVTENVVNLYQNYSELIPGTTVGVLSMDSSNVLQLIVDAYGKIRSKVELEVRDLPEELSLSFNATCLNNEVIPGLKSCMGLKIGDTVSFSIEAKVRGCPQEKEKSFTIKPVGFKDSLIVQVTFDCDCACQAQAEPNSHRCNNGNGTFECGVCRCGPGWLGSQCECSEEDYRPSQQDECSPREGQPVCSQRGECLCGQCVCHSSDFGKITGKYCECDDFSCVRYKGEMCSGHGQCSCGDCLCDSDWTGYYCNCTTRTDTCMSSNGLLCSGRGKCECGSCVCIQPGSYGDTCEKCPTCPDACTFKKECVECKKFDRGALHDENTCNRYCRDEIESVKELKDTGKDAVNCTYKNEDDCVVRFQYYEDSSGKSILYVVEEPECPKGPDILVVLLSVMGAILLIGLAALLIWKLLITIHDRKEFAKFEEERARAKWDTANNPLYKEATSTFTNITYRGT
Sequence (P06756 31-889 limits assumed): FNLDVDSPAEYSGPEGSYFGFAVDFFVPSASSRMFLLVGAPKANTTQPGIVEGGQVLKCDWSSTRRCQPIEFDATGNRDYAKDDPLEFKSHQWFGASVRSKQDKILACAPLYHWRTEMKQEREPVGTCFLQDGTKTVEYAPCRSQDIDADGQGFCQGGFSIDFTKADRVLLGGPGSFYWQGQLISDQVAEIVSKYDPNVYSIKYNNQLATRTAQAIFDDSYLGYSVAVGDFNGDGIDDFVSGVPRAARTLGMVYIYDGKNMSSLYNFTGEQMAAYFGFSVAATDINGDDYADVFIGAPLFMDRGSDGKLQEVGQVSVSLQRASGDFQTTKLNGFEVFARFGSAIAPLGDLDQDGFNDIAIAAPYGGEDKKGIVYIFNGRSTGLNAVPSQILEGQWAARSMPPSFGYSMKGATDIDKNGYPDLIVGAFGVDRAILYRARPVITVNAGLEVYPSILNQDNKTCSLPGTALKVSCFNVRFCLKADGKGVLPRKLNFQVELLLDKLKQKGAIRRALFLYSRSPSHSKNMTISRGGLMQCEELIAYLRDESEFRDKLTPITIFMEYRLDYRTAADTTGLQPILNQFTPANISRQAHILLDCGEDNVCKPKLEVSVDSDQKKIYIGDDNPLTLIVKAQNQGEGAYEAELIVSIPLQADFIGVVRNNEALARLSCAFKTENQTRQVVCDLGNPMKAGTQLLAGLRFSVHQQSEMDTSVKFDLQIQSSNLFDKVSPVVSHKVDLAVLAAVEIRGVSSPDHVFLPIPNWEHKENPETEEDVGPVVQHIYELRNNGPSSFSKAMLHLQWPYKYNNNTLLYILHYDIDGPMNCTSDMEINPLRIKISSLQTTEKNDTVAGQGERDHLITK
Sequence (P06756 891-1048 limits assumed): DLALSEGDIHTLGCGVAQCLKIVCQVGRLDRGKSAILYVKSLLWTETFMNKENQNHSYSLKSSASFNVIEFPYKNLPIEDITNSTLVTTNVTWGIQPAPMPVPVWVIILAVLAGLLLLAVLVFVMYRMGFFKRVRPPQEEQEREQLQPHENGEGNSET
Assay: Inhibition of fibrinogen binding to alphaV-beta3 integrin receptor
measured.parameter: IC50
Remember to quote the unit after the number.

In one line, give reported IC50 of the entry Cc1cc(C)c(S(=O)(=O)N[C@@H](CNC(=O)C2=NO[C@]3(C2)C[C@@H](CNC2NC=CN2)N(C(=O)OCc2ccccc2)C3)C(=O)O)c(C)c1 .
57 nM

In one line, give reported IC50 of the entry Cc1cc(C)c(S(=O)(=O)N[C@@H](CNC(=O)C2=NO[C@]3(C2)C[C@@H](CNc2ccccn2)N(C(=O)OCc2ccccc2)C3)C(=O)O)c(C)c1 .
49 nM

In one line, give reported IC50 of the entry COC(=O)N1C[C@@]2(CC(C(=O)NC[C@H](NS(=O)(=O)c3c(C)cc(C)cc3C)C(=O)O)=NO2)C[C@H]1CNc1ncc[nH]1 .
57 nM

====

Molecular target: Integrin alpha-IIb/beta-3 (Homo sapiens, UniProt P05106+P08514)
Sequence (P05106 27-788 limits assumed): as the sequence (P05106 27-788 limits assumed) above
Sequence (P08514 32-887 limits assumed): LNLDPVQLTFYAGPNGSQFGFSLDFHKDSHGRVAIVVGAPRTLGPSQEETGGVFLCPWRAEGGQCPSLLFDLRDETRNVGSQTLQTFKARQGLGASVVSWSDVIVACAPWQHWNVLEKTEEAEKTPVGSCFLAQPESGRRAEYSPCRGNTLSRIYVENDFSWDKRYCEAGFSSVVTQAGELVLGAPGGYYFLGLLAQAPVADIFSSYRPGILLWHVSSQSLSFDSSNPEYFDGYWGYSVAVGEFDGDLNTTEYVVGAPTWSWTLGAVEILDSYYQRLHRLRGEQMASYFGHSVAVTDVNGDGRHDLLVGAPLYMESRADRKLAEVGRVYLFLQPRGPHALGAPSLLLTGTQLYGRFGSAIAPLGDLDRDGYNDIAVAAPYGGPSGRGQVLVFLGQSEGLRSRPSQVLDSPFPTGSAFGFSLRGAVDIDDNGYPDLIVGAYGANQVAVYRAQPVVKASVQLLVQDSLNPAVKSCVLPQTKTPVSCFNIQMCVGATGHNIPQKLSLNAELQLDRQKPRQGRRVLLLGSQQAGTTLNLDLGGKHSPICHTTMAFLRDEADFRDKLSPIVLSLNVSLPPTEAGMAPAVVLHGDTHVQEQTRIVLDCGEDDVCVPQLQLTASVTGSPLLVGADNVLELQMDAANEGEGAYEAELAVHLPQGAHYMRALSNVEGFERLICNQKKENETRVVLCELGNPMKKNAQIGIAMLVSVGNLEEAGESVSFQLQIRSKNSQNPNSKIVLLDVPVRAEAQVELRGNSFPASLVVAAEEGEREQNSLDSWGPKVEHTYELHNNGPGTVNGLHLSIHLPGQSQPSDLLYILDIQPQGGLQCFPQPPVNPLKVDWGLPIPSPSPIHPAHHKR
Sequence (P08514 891-1039 limits assumed): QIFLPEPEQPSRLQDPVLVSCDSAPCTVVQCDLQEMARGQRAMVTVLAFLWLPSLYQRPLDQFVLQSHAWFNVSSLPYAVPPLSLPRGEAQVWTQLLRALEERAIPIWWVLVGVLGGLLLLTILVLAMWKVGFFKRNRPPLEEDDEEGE
Assay: Inhibition of alpha IIb beta3 integrin receptor in human platelet rich plasma
measured.parameter: IC50 (µM)
Numbers only; they are read as µM.

Please review the entries below; each comes with its answer.
compound=Cc1cc(C)c(S(=O)(=O)N[C@@H](CNC(=O)C2=NO[C@]3(C2)C[C@@H](CNC2NC=CN2)N(C(=O)OCc2ccccc2)C3)C(=O)O)c(C)c1 numeric_result=7.3
compound=Cc1cc(C)c(S(=O)(=O)N[C@@H](CNC(=O)C2=NO[C@]3(CN[C@H](CNc4ncc[nH]4)C3)C2)C(=O)O)c(C)c1 numeric_result=1.4
compound=COC(=O)N1C[C@@]2(CC(C(=O)NC[C@H](NS(=O)(=O)c3c(C)cc(C)cc3C)C(=O)O)=NO2)C[C@H]1CNc1ncc[nH]1 numeric_result=7.3
compound=Cc1cc(C)c(S(=O)(=O)N[C@@H](CNC(=O)C2=NO[C@]3(C2)C[C@@H](CNc2ncc[nH]2)N(C(=O)OCc2cccnc2)C3)C(=O)O)c(C)c1 numeric_result=5.6

Below: the item to evaluate.
Using Integrin alpha-IIb/beta-3 (Homo sapiens, UniProt P05106+P08514) as the test system, report measured IC50 of Cc1cc(C)c(S(=O)(=O)N[C@@H](CNC(=O)C2=NOC3(C2)C[C@@H](CNC2NC=CN2)N(C(=O)OCc2ccccc2)C3)C(=O)O)c(C)c1 (single isomer, unassigned) .
9.2

====

This section presents molecules with their documented IC50 values.
Target: Integrin alpha-V/beta-3 (Homo sapiens, UniProt P05106+P06756)
Experiment: Inhibition of fibrinogen binding to alphaV-beta3 integrin receptor
Numbers only; they are read as nM.

chemical_structure=CCCCOC(=O)N1C[C@@]2(CC(C(=O)NC[C@H](NS(=O)(=O)c3c(C)cc(C)cc3C)C(=O)O)=NO2)C[C@H]1CNc1ncc[nH]1 numeric_result=130
chemical_structure=Cc1cc(C)c(S(=O)(=O)N[C@@H](CNC(=O)C2=NO[C@]3(C2)C[C@@H](CNc2ncc[nH]2)N(C(=O)OCc2ccccc2)C3)C(=O)O)c(C)c1 numeric_result=41
chemical_structure=CCCCOC(=O)N1C[C@@]2(CC(C(=O)NC[C@H](NS(=O)(=O)c3c(C)cc(C)cc3C)C(=O)O)=NO2)C[C@H]1CNc1nc2ccccc2[nH]1 numeric_result=87

In one line, give reported IC50 of the entry COC(=O)N1C[C@@]2(CC(C(=O)NC[C@H](NS(=O)(=O)c3c(C)cc(C)cc3C)C(=O)O)=NO2)C[C@H]1CNc1nc2ccccc2[nH]1 .
34

In one line, give reported IC50 of the entry Cc1cc(C)c(S(=O)(=O)N[C@@H](CNC(=O)C2=NO[C@]3(CN[C@H](CNc4ncc[nH]4)C3)C2)C(=O)O)c(C)c1 .
180

In one line, give reported IC50 of the entry Cc1cc(C)c(S(=O)(=O)N[C@@H](CNC(=O)C2=NO[C@]3(C2)C[C@@H](CNc2ncc[nH]2)N(C(=O)OCc2cccnc2)C3)C(=O)O)c(C)c1 .
32

Source of measurements: ChEMBL document CHEMBL1144453
